System: HEK293T (UBE3A T485A transfected, BAR Wnt reporter)
Test: Wnt reporter firefly/Renilla luciferase ratio relative to plate median (fold (linear ratio)); higher = more Wnt/beta-catenin reporter activation
Conditions: concentration: 1 uM; 24 h
Over roughly 1,100 compounds, “Wnt reporter firefly/Renilla luciferase ratio relative to plate median” has its median near 1.1; the highest 2% begin near 1.6. Only a selection was taken, and the highest values are over-represented in it overall.
Entry flag: 1 if Wnt reporter firefly/Renilla luciferase ratio reaches 1; 0 if it does not.

Previously resolved entries follow.
# compound, system tested, group label
data = [
    ("CC(C)N1C(=O)N(c2ccccc2)CSC1=NC(C)(C)C", "HEK293T (UBE3A T485A transfected, BAR Wnt reporter)", 1),
    ("COc1cnc(OC)n2nc(NS(=O)(=O)c3c(OCC(F)F)cccc3C(F)(F)F)nc12", "HEK293T (UBE3A T485A transfected, BAR Wnt reporter)", 1),
]

Determine whether this compound has Wnt reporter firefly/Renilla luciferase ratio no lower than 1: N#Cc1c(Cl)c(Cl)c(Cl)c(C#N)c1Cl 1

Determine whether this compound has Wnt reporter firefly/Renilla luciferase ratio no lower than 1: Oc1c(Cl)cc(Cl)cc1Cl 1

Determine whether this compound has Wnt reporter firefly/Renilla luciferase ratio no lower than 1: O=P(OC(CCl)CCl)(OC(CCl)CCl)OC(CCl)CCl 0

Determine whether this compound has Wnt reporter firefly/Renilla luciferase ratio no lower than 1: C=C(C)C(=O)[O][Sn]([CH2]CCC)([CH2]CCC)[CH2]CCC [Tributyltin methacrylate] 0

Determine whether this compound has Wnt reporter firefly/Renilla luciferase ratio no lower than 1: CCCCCCCCCC(CC)c1ccc(S(=O)(=O)O)cc1.OCCN(CCO)CCO (stereo not given) [Dodecylbenzene sulfonate triethanolamine(1:1)] 1

Determine whether this compound has Wnt reporter firefly/Renilla luciferase ratio no lower than 1: Nc1c(Cl)cc([N+](=O)[O-])cc1Cl 0

###

Tested on: HEK293T (UBE3A T485A transfected, BAR Wnt reporter)
Test: Wnt reporter firefly/Renilla luciferase ratio relative to plate median (fold (linear ratio)); higher = more Wnt/beta-catenin reporter activation
Conditions: concentration: 10 uM; 24 h
In all, about 1,100 compounds were measured (“Wnt reporter firefly/Renilla luciferase ratio relative to plate median”: median about 1.1, highest 2% from about 1.6 on). This is one part of a sample in which the highest values are shown more often than they occur.
The reader will find reported Wnt reporter firefly/Renilla luciferase ratio values listed item by item below.
Just the number.

Reference set (3 entries):
# molecule, numeric value
records = [
    ("CCN(CC)C(=O)SCc1ccc(Cl)cc1", 1.02),
    ("c1ccc(OP(Oc2ccccc2)Oc2ccccc2)cc1", 1),
    ("CC1(C)C(C=C(Cl)Cl)C1C(=O)OC(C#N)c1cccc(Oc2ccccc2)c1 (centres undefined)", 0.991),
]

The record that follows has no Wnt reporter firefly/Renilla luciferase ratio shown yet.
Query (molecule): c1ccc2c(c1)oc1ccccc12 ; field requested: Wnt reporter firefly/Renilla luciferase ratio 1.02

###

Test system: HEK293T (UBE3A T485A transfected, BAR Wnt reporter)
Experiment: Wnt reporter firefly/Renilla luciferase ratio relative to plate median (fold (linear ratio)); higher = more Wnt/beta-catenin reporter activation
Conditions: concentration: 1 uM; 24 h
The full ranking holds about 1,100 compounds; the median of “Wnt reporter firefly/Renilla luciferase ratio relative to plate median” is about 1.1, and the highest 2% start at about 1.6. This is one part of a sample in which the highest values are shown more often than they occur.
The reader will find reported Wnt reporter firefly/Renilla luciferase ratio values listed item by item below.
Just the number.

Reference set (2 entries):
# compound, numeric value
records = [
    ("COP(=S)(OC)SCn1nnc2ccccc2c1=O", 0.978),
    ("Nc1cc2c3c(c1)C(c1ccccc1)=N[C@@H](NC(=O)c1cccnc1)C(=O)N3CC2", 0.977),
]

Query (compound): CNC(=O)CSP(=S)(OC)OC [Dimethoate] ; field requested: Wnt reporter firefly/Renilla luciferase ratio 1.02

Query (compound): CNC(=O)Oc1cccc2c1OC(C)(C)O2 ; field requested: Wnt reporter firefly/Renilla luciferase ratio 1.01

Query (compound): CCNc1nc(Cl)nc(NCC)n1 ; field requested: Wnt reporter firefly/Renilla luciferase ratio 1.01

Query (compound): CCOC(=O)C(Cl)Cc1cc(-n2nc(C)n(C(F)F)c2=O)c(F)cc1Cl (stereo unspecified) ; field requested: Wnt reporter firefly/Renilla luciferase ratio 0.982
